These measurements were taken from ChEMBL document CHEMBL4680175.

Test system: K562
Assay: Antitumor activity against human K562 cells assessed as cell growth inhibition at 10 uM incubated for 48 hrs by sulforhodamine B assay
Format: functional
Conditions: read-out: GI
Readout kind: inhibition of growth at 10 µM (%)
Dear colleague, please return just the value in %, with no unit written.

• N#Cc1c(-c2ccc(Cl)cc2)nc2c(/N=N/c3ccc(S(N)(=O)=O)cc3)c(N)nn2c1N = 28
• Cc1ccc(-c2cn3nc(N)c(/N=N/c4ccc(S(N)(=O)=O)cc4)c3[nH]2)cc1 = 48
• Nc1nn2cc(-c3ccc(Br)cc3)[nH]c2c1/N=N/c1ccc(S(N)(=O)=O)cc1 = 38

## Task Give a short answer stating reported inhibition of growth at 10 µM for N#Cc1c(-c2ccc(F)cc2)nc2c(/N=N/c3ccc(S(N)(=O)=O)cc3)c(N)nn2c1N .
## Result 33

## Task Give a short answer stating reported inhibition of growth at 10 µM for Nc1nn2cc(-c3ccccc3)[nH]c2c1/N=N/c1ccc(S(N)(=O)=O)cc1 .
## Result 67

## Task Give a short answer stating reported inhibition of growth at 10 µM for N#Cc1c(-c2ccc(Br)cc2)nc2c(/N=N/c3ccc(S(N)(=O)=O)cc3)c(N)nn2c1N .
## Result 64

## Task Give a short answer stating reported inhibition of growth at 10 µM for Cc1ccc(-c2nc3c(/N=N/c4ccc(S(N)(=O)=O)cc4)c(N)nn3c(N)c2C#N)cc1 .
## Result 80
